- System: MS2 coat protein
- method: apparent KD of MS2 coat protein; designed switch direction (-1 OFF switch, 1 ON switch): -1; higher = weaker reporter binding
- measurement conditions: Eterna round: R95; input ligand: none
Kindly return yes (1) if reported apparent KD of MS2 coat protein is no lower than 20 nM; return no (0) if it is lower.

[[record]]
macromolecule_sequence = "UUUAAUUUUUUUUUUUUACAAGCUUUUUGCUCGUCUUAUACAUGAGGAUCACCCAUGUAGGUGAAGAGUAAAUUAUC [JMF 58] (puzzle: Sensor v3, turn-off variant 2)"
cat = "no (0)"

[[record]]
macromolecule_sequence = "GAUGAGCAUGUCAGGAUAUCCACUCUAAUAAAACAGGAGAAGGGACAUGAGGAUCACCCAUGUUCUAGACAUGA [Latealedi] (puzzle: Brourd's mod of Exclusion 4)"
cat = "no (0)"

[[record]]
macromolecule_sequence = "CACAAGCUUUUUUGAUGCAUUUUAGUUGGUUUCCUUUUUACAUGAGGAUCACCCAUGUUUAUGAAGCUCGAUCUUUU [JR_SV3TOV2_Sub079] (puzzle: Sensor v3, turn-off variant 2)"
cat = "yes (1)"

[[record]]
macromolecule_sequence = "GGGCGGCGGACCGUGGCUUUUUGCUCGUCUUGUGCUUCGACAUGAGGAUCACCCAUGUGGUGGUGGUCCGUUGUGGG [Grok-var2-14 mod JAL] (puzzle: Sensor v3, turn-off variant 2)"
cat = "no (0)"

[[record]]
macromolecule_sequence = "AGUAACCGUCACGAAAGUGAUGGUUACACAAGCAAAUGUACAUGAGGAUCACCCAUGUCCUCGUUUGCUCGUCUUAU [Sensor 3 - 49] (puzzle: Sensor v3, turn-off variant 2)"
cat = "yes (1)"

